TEST_SUMMARY: qHTS Assay for Lipid Storage Modulators (AID 1519); further: on the % scale 0 is the no-effect control and ±100 the full control effect
EXPERIMENTAL_CONTEXT: Drosophila S3 cells, BODIPY lipid droplet/cell ratio, laser cytometry; at 57.5 µM (top of the series); cells loaded with oleic acid
Inconclusive results are not listed.
ENDPOINT_LABEL: activity change, negative = inhibition (%)
Reply numerically in %, unit not repeated.

[
  {
    "COMPOUND": "CN1CCN(c2ncncc2-c2ccccc2Cl)CC1",
    "activity change, negative = inhibition / %": -1.74
  }
]

// activity change, negative = inhibition lookup, key: CC(C)NC(=O)N1CCC2(CC1)CCN(S(=O)(=O)c1ccccc1)CC2
3.73

Can you check CN(Cc1ccco1)c1ccnc(-c2cccc(NS(C)(=O)=O)c2)n1 next?
9.05

Next molecule: O=C(c1cnccn1)N1CCC2(CCN(Cc3ccncc3)CC2)CC1
3.75

Subsequent entry: CN1CCC2(CC1)CCN(C(=O)c1cccc(F)c1)CC2
-1.77

What about this molecule? Cc1ccccc1-c1nc(NCCN2CCOCC2)c2ccccc2n1
8.15

// repeat for COc1ccc(CNc2ncnc3ccc(-c4ccoc4)cc23)c(OC)c1 and report
-9.76

// same read-out, input: O=C(c1csnn1)N1CCC[C@@]2(CCN(Cc3cc(C(F)(F)F)cc(C(F)(F)F)c3)C2)C1
5.01

###

TARGET_OR_SYSTEM: Cytochrome P450 2C19 (Homo sapiens)
TEST_SUMMARY: qHTS Assay for Inhibitors and Substrates of Cytochrome P450 2C19 (AID 899); further: nearly all actives have a fitted effect of over 60% in size
EXPERIMENTAL_CONTEXT: recombinant CYP2C19, luciferin-H EGE luminescence; series mostly up to 57.1 µM
Description: NIH Molecular Libraries Screening Centers Network [MLSCN] NIH Chemical Genomics Center [NCGC] The P450 gene superfamily is involved in the metabolism and clearance of xenobiotics. […] The luciferin is then measured by luminescence after the addition of a luciferase detection reagent. […] Inhibitors and some substrates limit the production of luciferin, and decrease measured luminescence. […]
Records with an inconclusive call do not appear. Activity calls are given as the source filed them. Calls come from the whole dose curve; as a rule, active = well fitted inhibition curve with a large enough effect; inconclusive = small, poorly fitted or top-dose-only effect; inactive = no such curve, though single readings can be large or run the other way.
# output must be one of active, inactive

Solved cases below.
[
  {
    "COMPOUND": "FC(F)(F)c1ccccc1-c1cncnc1Nc1ccccc1",
    "CAT": "active"
  },
  {
    "COMPOUND": "COc1cccc(Cn2c(=O)c(-c3ccc(F)cc3)nc3cnc(N4CCOCC4)nc32)c1",
    "CAT": "inactive"
  },
  {
    "COMPOUND": "CNc1nc(-c2ccccc2OC)nc2ccccc12",
    "CAT": "inactive"
  },
  {
    "COMPOUND": "COc1ccc(CNc2ccnc(-c3ccccc3Cl)n2)c(OC)c1",
    "CAT": "active"
  },
  {
    "COMPOUND": "COc1c(O)cc2oc3cc(O)c(CC=C(C)C)c(O)c3c(=O)c2c1CC=C(C)C",
    "CAT": "active"
  }
]

Next:
Test call for this compound, please: CN(Cc1ccco1)c1ncnc2ccc(-c3ccccc3C#N)cc12
active

###

TARGET_OR_SYSTEM: Dual specificity protein kinase CLK4 (Homo sapiens)
TEST_SUMMARY: qHTS Assay for Inhibitors of CDC-like Kinase 4 (ADP-FP Assay) (AID 1795); further: nearly all actives have a fitted effect of over 60% in size
EXPERIMENTAL_CONTEXT: Transcreener ADP fluorescence polarization; series mostly up to 50 µM
Inconclusive results are not listed. Active and inactive are the calls of the source. Calls come from the whole dose curve; as a rule, active = well fitted inhibition curve with a large enough effect; inconclusive = small, poorly fitted or top-dose-only effect; inactive = flat fitted curve, though single readings scatter.
Outcome (select one): true = active, false = inactive

Use the examples below as a reference point.
[
  {
    "COMPOUND": "COc1cccc(Nc2ncc3nc(-c4cccs4)c(=O)n(Cc4cccs4)c3n2)c1",
    "CAT": "false"
  },
  {
    "COMPOUND": "COc1cccc(Cn2c(=O)c(-c3cccs3)nc3cncnc32)c1",
    "CAT": "false"
  },
  {
    "COMPOUND": "COc1ccccc1-c1cncnc1NCc1cnc(C)cn1",
    "CAT": "false"
  },
  {
    "COMPOUND": "COc1ccc(-c2nc3cnc(N4CCOCC4)nc3n(CCc3ccccc3)c2=O)cc1",
    "CAT": "false"
  }
]

Field: outcome | Entry: Cn1cc(-c2nc3cnc(N4CCOCC4)nc3n(CCC#N)c2=O)c2ccccc21
false

Try c1cncc(-c2nc(-n3ccnc3)c3ccccc3n2)c1 next.
true

Consider next the molecule Clc1ccccc1-c1nc(NC2CCNCC2)c2ccccc2n1 in the same way.
true

Would you mind doing c1cn(-c2cc(-c3ccc4c(c3)OCO4)ncn2)cn1 as well?
true

Further, for CN1CCN(c2ncc3nc(-c4cn(C)c5ccccc45)c(=O)n(CCc4ccccc4)c3n2)CC1 ?
false

Now the same for COc1ccccc1CNc1cc(-c2ccccc2C(F)(F)F)ncn1
false

O=c1c(-c2ccccc2)nc2cncnc2n1-c1ccccc1 , same question.
false
